B1: Pistol ribozyme (parent)
chain: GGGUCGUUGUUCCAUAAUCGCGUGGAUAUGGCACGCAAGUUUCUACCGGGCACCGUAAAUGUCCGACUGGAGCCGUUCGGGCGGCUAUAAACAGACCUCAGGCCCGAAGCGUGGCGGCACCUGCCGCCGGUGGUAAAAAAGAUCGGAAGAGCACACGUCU

- Variants of: B1
- ASSAY COMMENT: aptazyme ON/OFF ratio, guanine; higher = stronger switching; co-transcriptional cleavage with and without guanine
Record form. Attribute: aptazyme ON/OFF ratio. Fill in for each entry.
Give a plain numeric answer without units written out.

Query (variant): U8A G9C C12G ; field requested: aptazyme ON/OFF ratio 1.22

Continue with G9A U10G U11G C12G C13A 1.16

Next record, please: U7C U8C G9A U10A U11A C12U C13A 1.27

Likewise for U7C U8A U11A C13G ? 1.08

What about this variant? U7A U8A U10C C12G C13A 1.17

What do we get for U7C G9C U10A U11C C13A ? 1.02

What about this variant? U7G U8C G9C U10C U11G C12U C13A 1.08

Repeat for the following variant: U8G G9U U10C U11G C12U C13G 1.09

Can you check U8G G9C U10C U11A C12A C13A next? 1.06

Same question for U7A G9C U10G U11A C12G C13G please. 1.21

Here is the next variant: U8C G9A U10G U11A C12A C13G 1.12

Would you mind doing U8A G9U U11G C12A C13G as well? 1.41

Next variant: U7C U8C G9C U10A U11C C13U 1.1

Another variant to check: U7G U8C G9A U10C C12A C13U 1.19

Do the same for U7C G9C U10A U11C C12A C13U please 1.05

Moving on to the next variant: U7G U8C G9C U10G U11G C13U 1.06

Continue with U7A U8G G9C U10G U11C C12G C13U 1.4

Please do the same for U7C U8G U10G U11C C12U C13U as well. 1.37

U7C U8A G9C U10C U11C C13G ? 1

Note, next up: U8A G9U U10A U11G C12U C13U 1.4

Field entry: U8A G9C U10C U11C C13U 0.998

Now this one: U7C U8C G9U U10A U11A C12G C13U 1.11

Follow-up item: U7C G9U C13U 1.06

Also need U7A U8A G9A U10G U11C C12G C13G , thanks. 1.17

What do you get for U7A U8G G9A U10A U11C C12U ? 1.04

Input U7G G9A U10G U11C C13A 1.08

Likewise for U7C C13U ? 1.18

Next variant: U8G G9C U10G U11A C12G C13G 1.29

Further, for U7G U8G G9A U10C U11G C12A C13A ? 1.11

Can you check U7A U8A G9C U10A C12U C13G next? 1.1

Proceed to U7G U8A G9C U10C C12G C13U 1.07

Could you do the same for U8C U10C U11C C13G , please? 1.19

Again, but for U7C U8G G9U U10G 1.28

One more variant: U7C U8A G9C C12G C13G 1.14

Lookup U7G U8G G9C U10C C12G C13G 1.09

Again, but for U7A U8G U10G U11G C12A 1.24

Here is the next variant: G9C U10G U11A C12U C13G 1.09

What do you get for U8A G9A U10G C12U C13G ? 1.17

Also check U8G G9A U11C C13U 1.06

Entry to check: G9U U10G U11C C12U C13A 1.14

Cool, now U7A U8G G9C U10G U11A C13A 1.11

Consider next the variant U7C U8A U10G U11G C13G in the same way. 1.12
